The origin of these recorded values is patent US20260028365A1.

target: Tyk2 (Homo sapiens (Human)); assay: pSTAT4 Cell Assay (MSD, NK92 cells); type: cell-based; conditions: MSD
Sequence (P29597 whole entry): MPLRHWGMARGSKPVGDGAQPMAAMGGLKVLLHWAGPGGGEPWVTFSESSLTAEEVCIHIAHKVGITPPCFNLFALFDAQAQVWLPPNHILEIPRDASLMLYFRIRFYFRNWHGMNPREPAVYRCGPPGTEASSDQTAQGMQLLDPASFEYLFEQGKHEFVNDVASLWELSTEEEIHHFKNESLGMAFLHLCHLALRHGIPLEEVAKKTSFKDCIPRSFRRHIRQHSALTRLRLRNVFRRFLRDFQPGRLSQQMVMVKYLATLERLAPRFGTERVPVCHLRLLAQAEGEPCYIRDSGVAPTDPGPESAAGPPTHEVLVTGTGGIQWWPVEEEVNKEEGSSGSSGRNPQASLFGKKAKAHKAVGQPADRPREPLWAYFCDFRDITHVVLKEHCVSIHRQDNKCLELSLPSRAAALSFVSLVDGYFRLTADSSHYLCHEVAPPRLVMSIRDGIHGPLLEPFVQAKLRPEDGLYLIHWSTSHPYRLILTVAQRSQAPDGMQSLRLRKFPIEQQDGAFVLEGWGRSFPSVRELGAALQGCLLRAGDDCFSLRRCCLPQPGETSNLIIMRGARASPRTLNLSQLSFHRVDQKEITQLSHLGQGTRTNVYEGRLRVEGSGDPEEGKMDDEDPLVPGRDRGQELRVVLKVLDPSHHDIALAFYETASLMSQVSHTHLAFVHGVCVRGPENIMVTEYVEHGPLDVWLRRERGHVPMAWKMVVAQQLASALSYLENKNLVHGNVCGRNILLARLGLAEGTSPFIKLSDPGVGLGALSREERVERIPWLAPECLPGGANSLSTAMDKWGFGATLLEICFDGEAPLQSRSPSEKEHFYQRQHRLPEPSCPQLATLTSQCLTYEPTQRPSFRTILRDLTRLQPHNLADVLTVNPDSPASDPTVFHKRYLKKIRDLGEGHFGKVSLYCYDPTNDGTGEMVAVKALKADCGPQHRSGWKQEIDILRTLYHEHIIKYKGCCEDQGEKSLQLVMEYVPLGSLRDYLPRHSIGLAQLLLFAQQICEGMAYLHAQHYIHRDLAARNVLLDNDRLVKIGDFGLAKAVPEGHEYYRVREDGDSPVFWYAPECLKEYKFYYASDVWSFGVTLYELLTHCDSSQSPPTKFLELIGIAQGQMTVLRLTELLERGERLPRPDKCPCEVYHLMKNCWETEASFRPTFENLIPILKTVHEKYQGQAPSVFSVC
pIC50: −log10 of the molar value. Counter-ions that a name gives are not always drawn.

COMPOUND: [2H]C([2H])([2H])C(=O)Nc1cc(Nc2cc(C)nc(C(C)(F)F)n2)c(-c2ccc(OC)nn2)cn1 [Example 213]
ASSAYED_SYSTEM: Tyk2 (Homo sapiens (Human))
pIC50: ≥ 8.00
--
COMPOUND: COCn1ncc(-c2cnc(NC(C)=O)cc2Nc2ccnc(C(C)(F)F)n2)n1 [Example 711]
ASSAYED_SYSTEM: Tyk2 (Homo sapiens (Human))
pIC50: 7.00 to 8.00
--
COMPOUND: COc1ccc(-c2cnc(NC(C)=O)cc2Nc2cccc(C(C)(F)F)n2)nn1 [Example 526]
ASSAYED_SYSTEM: Tyk2 (Homo sapiens (Human))
pIC50: 7.00 to 8.00
--
COMPOUND: [2H]C([2H])(C)Oc1cnc(NC(C)=O)cc1Nc1cc(C(C)C)nc(C(C)(F)F)n1 [Example 364]
ASSAYED_SYSTEM: Tyk2 (Homo sapiens (Human))
pIC50: 7.00 to 8.00
--
COMPOUND: CC(=O)Nc1cc(Nc2cc(C)nc(C(C)(F)F)n2)c(OCc2ccc(C)nc2)cn1 [Example 116]
ASSAYED_SYSTEM: Tyk2 (Homo sapiens (Human))
pIC50: 7.00 to 8.00
--
COMPOUND: CC(=O)Nc1cc(Nc2cc(C)cc(C(C)(F)F)n2)c(-c2ncc(F)cn2)cn1 [Example 190]
ASSAYED_SYSTEM: Tyk2 (Homo sapiens (Human))
pIC50: 7.00 to 8.00
--
COMPOUND: CCOc1cnc(NC(C)=O)cc1Nc1cc(C(C)C)nc(C(C)(F)F)n1 [Example 51]
ASSAYED_SYSTEM: Tyk2 (Homo sapiens (Human))
pIC50: 7.00 to 8.00
--
COMPOUND: COc1cnc(NC(C)=O)cc1Nc1cc(-c2cnn(C(F)F)c2)nc(C(C)(F)F)n1 [Example 375]
ASSAYED_SYSTEM: Tyk2 (Homo sapiens (Human))
pIC50: 6.00 to 7.00
--
COMPOUND: COCCOc1ccc(-c2cnc(NC(C)=O)cc2Nc2cc(C)nc(C(C)(F)F)n2)nc1 [Example 522]
ASSAYED_SYSTEM: Tyk2 (Homo sapiens (Human))
pIC50: ≥ 8.00
--
COMPOUND: CCc1cc(Nc2cc(NC(C)=O)ncc2OC)nc(C(C)(F)F)n1 [Example 36]
ASSAYED_SYSTEM: Tyk2 (Homo sapiens (Human))
pIC50: 7.00 to 8.00
--
COMPOUND: CC(=O)Nc1cc(Nc2cc(C)nc(C(C)(F)F)n2)c(-c2cc(N(C)C)ncn2)cn1 [Example 247]
ASSAYED_SYSTEM: Tyk2 (Homo sapiens (Human))
pIC50: ≤ 6.00
--
COMPOUND: CC(=O)Nc1cc(Nc2cc(C)nc(C(C)(F)F)n2)c(OCC2(C(F)(F)F)CC2)cn1 [Example 57]
ASSAYED_SYSTEM: Tyk2 (Homo sapiens (Human))
pIC50: 7.00 to 8.00
--
COMPOUND: CC(=O)Nc1cc(Nc2cc(C)nc(C3CCOC3)n2)c(-c2ccn(C)n2)cn1 (stereo not drawn) [Example 555]
ASSAYED_SYSTEM: Tyk2 (Homo sapiens (Human))
pIC50: 7.00 to 8.00
--
COMPOUND: CC(=O)Nc1cc(Nc2cc(C)nc(C34CCC(C3)OC4)n2)c(-c2ccn(C)n2)cn1 (stereo not drawn) [Example 557]
ASSAYED_SYSTEM: Tyk2 (Homo sapiens (Human))
pIC50: 7.00 to 8.00
--
COMPOUND: CCS(=O)(=O)n1ccc(-c2cnc(NC(C)=O)cc2Nc2cc(C)nc(C(C)(F)F)n2)n1 [Example 542]
ASSAYED_SYSTEM: Tyk2 (Homo sapiens (Human))
pIC50: ≥ 8.00
--
COMPOUND: COc1cc(-c2cnc(NC(C)=O)cc2Nc2ccnc(C(C)(F)F)n2)ncn1 [Example 193]
ASSAYED_SYSTEM: Tyk2 (Homo sapiens (Human))
pIC50: 7.00 to 8.00
--
COMPOUND: CC(=O)Nc1cc(Nc2cc(C)nc(C(C)(F)F)n2)c(OC2COC2)cn1 [Example 86]
ASSAYED_SYSTEM: Tyk2 (Homo sapiens (Human))
pIC50: 7.00 to 8.00
--
COMPOUND: COc1cnc(NC(C)=O)cc1Nc1cc(OC2CC(C#N)C2)nc(C(C)(F)F)n1 (stereo not drawn) [Example 456]
ASSAYED_SYSTEM: Tyk2 (Homo sapiens (Human))
pIC50: 7.00 to 8.00
--
COMPOUND: CC(=O)Nc1cc(Nc2ccnc(C(C)(F)F)c2)c(-c2ncc(F)cn2)cn1 [Example 187]
ASSAYED_SYSTEM: Tyk2 (Homo sapiens (Human))
pIC50: ≤ 6.00
--
COMPOUND: CC(=O)Nc1cc(Nc2cc(C)nc(C(C)(F)F)n2)c(OCC2(C#N)CC2)cn1 [Example 84]
ASSAYED_SYSTEM: Tyk2 (Homo sapiens (Human))
pIC50: 7.00 to 8.00
--
COMPOUND: CC(=O)Nc1cc(Nc2ccnc(C(C)(F)F)n2)c(OC(C)C)cn1 [Example 8]
ASSAYED_SYSTEM: Tyk2 (Homo sapiens (Human))
pIC50: 6.00 to 7.00
--
COMPOUND: COCc1cnc(NC(C)=O)cc1Nc1ccc(-c2ccn(C)n2)c(OC)n1 [Example 48]
ASSAYED_SYSTEM: Tyk2 (Homo sapiens (Human))
pIC50: ≤ 6.00
--
COMPOUND: CC(=O)Nc1cc(Nc2cc(C)nc(C(C)(F)F)n2)c(OCC2CC23CC3)cn1 (stereo not drawn) [Example 422]
ASSAYED_SYSTEM: Tyk2 (Homo sapiens (Human))
pIC50: 7.00 to 8.00
--
COMPOUND: COc1cnn(-c2cnc(NC(C)=O)cc2Nc2cc(C)nc(C(C)(F)F)n2)c1 [Example 731]
ASSAYED_SYSTEM: Tyk2 (Homo sapiens (Human))
pIC50: 7.00 to 8.00
--
COMPOUND: CC(=O)Nc1cc(Nc2ccnc(C(C)(F)F)n2)c(-c2nc3c(s2)CN(C)C3)cn1 [Example 284]
ASSAYED_SYSTEM: Tyk2 (Homo sapiens (Human))
pIC50: 7.00 to 8.00
--
COMPOUND: CC(=O)Nc1cc(Nc2cc(C)nc(C(C)(F)F)n2)c(-c2cnc(C)o2)cn1 [Example 600]
ASSAYED_SYSTEM: Tyk2 (Homo sapiens (Human))
pIC50: 6.00 to 7.00
--
COMPOUND: COc1cnc(NC(C)=O)cc1Nc1cc(-c2cnn(CCN(C)C)c2)nc(C(C)(F)F)n1 [Example 380]
ASSAYED_SYSTEM: Tyk2 (Homo sapiens (Human))
pIC50: 7.00 to 8.00
--
COMPOUND: CC(=O)Nc1cc(Nc2cc(C)nc(C(C)(F)F)n2)c(-c2cccnn2)cn1 [Example 251]
ASSAYED_SYSTEM: Tyk2 (Homo sapiens (Human))
pIC50: ≥ 8.00
--
COMPOUND: COc1ccc(-c2cnc(NC(C)=O)cc2Nc2ccnc(C(C)(F)F)n2)nn1 [Example 214, trifluoroacetate]
ASSAYED_SYSTEM: Tyk2 (Homo sapiens (Human))
pIC50: ≥ 8.00
--
COMPOUND: CC(=O)Nc1cc(Nc2cc(C)nc(C(C)(F)F)n2)c(OCC(F)F)cn1 [Example 24]
ASSAYED_SYSTEM: Tyk2 (Homo sapiens (Human))
pIC50: 7.00 to 8.00
--
COMPOUND: CC(=O)Nc1cc(Nc2cc(C)nc(C(C)(F)F)n2)c(-c2nc3c(s2)CCN(C)C3)cn1 [Example 237]
ASSAYED_SYSTEM: Tyk2 (Homo sapiens (Human))
pIC50: ≥ 8.00
--
COMPOUND: CNC(=O)Nc1cc(Nc2cc(C)nc(C(C)(F)F)n2)c(-c2ccn(C)n2)cn1 [Example 289]
ASSAYED_SYSTEM: Tyk2 (Homo sapiens (Human))
pIC50: ≥ 8.00
--
COMPOUND: CC(=O)Nc1cc(Nc2cccc(OC(F)F)n2)c(-c2ccncn2)cn1 [Example 171]
ASSAYED_SYSTEM: Tyk2 (Homo sapiens (Human))
pIC50: 6.00 to 7.00
